Items are presented alongside their recorded IC50.
Molecular target: Sodium-dependent serotonin transporter (Homo sapiens, UniProt P31645)
Sequence (P31645 whole entry): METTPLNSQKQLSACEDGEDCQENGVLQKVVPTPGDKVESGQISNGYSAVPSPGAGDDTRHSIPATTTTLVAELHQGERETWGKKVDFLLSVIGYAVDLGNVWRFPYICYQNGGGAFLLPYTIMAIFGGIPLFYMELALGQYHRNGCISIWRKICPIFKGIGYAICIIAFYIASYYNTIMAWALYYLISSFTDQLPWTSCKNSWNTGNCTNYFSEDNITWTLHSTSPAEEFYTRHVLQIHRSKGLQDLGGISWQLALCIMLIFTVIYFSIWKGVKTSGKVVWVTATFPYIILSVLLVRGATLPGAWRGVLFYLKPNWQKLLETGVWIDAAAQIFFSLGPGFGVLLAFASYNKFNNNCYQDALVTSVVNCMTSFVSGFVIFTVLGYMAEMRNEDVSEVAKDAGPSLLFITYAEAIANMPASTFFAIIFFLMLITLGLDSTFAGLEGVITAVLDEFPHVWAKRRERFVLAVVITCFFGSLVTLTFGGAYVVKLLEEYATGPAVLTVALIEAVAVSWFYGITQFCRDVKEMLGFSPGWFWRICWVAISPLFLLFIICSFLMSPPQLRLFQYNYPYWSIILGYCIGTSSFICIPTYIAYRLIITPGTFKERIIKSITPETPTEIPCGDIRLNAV
Experiment: Inhibition of [3H]-5-hydroxytryptamine reuptake in human SERT expressed in HEK293 cells by microbeta liquid scintillation counting method

The examples below pair each entry with its known result.
[[record]]
chemical_string = "C(=C\\c1ccccc1)/CN1CCN(CCn2nnnc2C(c2ccccc2)c2ccccc2)CC1"
property_label = "IC50"
recorded_value = "> 10 µM"

[[record]]
chemical_string = "O=C(NCCCN1CCC(Cc2ccccc2)CC1)C(c1ccccc1)c1ccccc1"
property_label = "IC50"
recorded_value = "> 10 µM"


Query compound follows.
IN: Given O=C(NCCN1CCC(Cc2ccccc2)CC1)C(c1ccc(Cl)cc1)c1ccc(Cl)cc1 , respond with its IC50.
OUT: > 10 µM
